Taken from patent US8623601B2.

system: normal B-cells; test: Cytotoxicity to normal B-cells from healthy volunteers, MTS assay; type: cell-based, human; conditions: normal B-cells from healthy volunteers, 72 hours, read-out: Normal ED50
Bridges are numbered along the chain shown (N, C = ends). Roman numbers before positions name the chains, in order.
Readout Name: EC50

I: Ac-RQIKIWFQNRRMKWKKCLRVRLASHLRKLRKRLL-NH2 / II: Ac-RQIKIWFQNRRMKWKKCLRVRLASHLRKLRKRLL-NH2 (disulfide I:17-II:17 (inferred)) [COG445] | > 10 µM
LRVRLASHLRKLRKRLL [COG133] | > 20 µM
LLRKRLKRLHSALRVRL [COG056] | > 20 µM

Below: the item to evaluate.
Briefly, EC50 measured for RQIKIWFQNRRMKWKK-C-LRVRLASHLRKLRKRLL [COG112] : > 20 µM

====

Task for the reader: assign each of the following substances its reported pEC50.
system: CLL cells; test: CLL cell cytotoxicity, MTS assay; assay type: cell-based, human; settings: CLL cells from 7 patients, 72 hours, read-out: ED50 of cytotoxicity to CLL cells
*1 amine or outer side, *2 acyl side, *3 side chain or, on linkers, in order; H or OH if unused. Bridges are numbered along the chain shown (N, C = ends). Roman numbers before positions name the chains, in order. BMOE = O=C1CC([*:1])C(=O)N1CCN1C(=O)CC([*:2])C1=O
One number for each entry, as −log10 of the molar value.

I: Ac-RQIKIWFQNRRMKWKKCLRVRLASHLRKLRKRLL-NH2 / II: Ac-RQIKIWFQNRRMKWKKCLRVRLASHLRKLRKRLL-NH2 (linker I:17-II:17 via BMOE) [COG449] | 6.99

Record I: Ac-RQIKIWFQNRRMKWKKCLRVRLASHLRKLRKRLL-NH2 / II: Ac-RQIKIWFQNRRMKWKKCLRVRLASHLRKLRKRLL-NH2 (disulfide I:17-II:17 (inferred)) [COG445] . Reported pEC50: 6.96
